Hey, just so you know, these numbers are from ChEMBL document CHEMBL6120971.

Test: Half-life in male Sprague-Dawley rat at 10 mg/kg, po measured after 24 hrs by LC-MS/MS analysis
Format: ADME, organism-based
Conditions: in vivo
measurement.label: half-life

Query: Provide half-life value for the following molecule: O=C1CCC(N2C(=O)c3ccc(N4CCN(CC5CCN(C(=O)c6ccc(-c7cnc8ncc(Cc9ccc%10ncccc%10c9)n8n7)cc6F)CC5)CC4)cc3C2=O)C(=O)N1 (stereo unspecified)
Result: 4.13 h

---

Target: von Hippel-Lindau disease tumor suppressor/Hepatocyte growth factor receptor (Homo sapiens, UniProt P08581+P40337)
Sequence (P40337 whole entry partner): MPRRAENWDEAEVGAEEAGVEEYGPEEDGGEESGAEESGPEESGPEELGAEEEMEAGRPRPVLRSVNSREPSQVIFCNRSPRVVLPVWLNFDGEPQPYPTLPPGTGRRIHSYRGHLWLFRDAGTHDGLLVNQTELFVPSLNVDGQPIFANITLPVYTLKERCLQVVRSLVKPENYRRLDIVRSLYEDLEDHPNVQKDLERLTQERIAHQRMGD
Sequence (P08581 25-1390 limits assumed): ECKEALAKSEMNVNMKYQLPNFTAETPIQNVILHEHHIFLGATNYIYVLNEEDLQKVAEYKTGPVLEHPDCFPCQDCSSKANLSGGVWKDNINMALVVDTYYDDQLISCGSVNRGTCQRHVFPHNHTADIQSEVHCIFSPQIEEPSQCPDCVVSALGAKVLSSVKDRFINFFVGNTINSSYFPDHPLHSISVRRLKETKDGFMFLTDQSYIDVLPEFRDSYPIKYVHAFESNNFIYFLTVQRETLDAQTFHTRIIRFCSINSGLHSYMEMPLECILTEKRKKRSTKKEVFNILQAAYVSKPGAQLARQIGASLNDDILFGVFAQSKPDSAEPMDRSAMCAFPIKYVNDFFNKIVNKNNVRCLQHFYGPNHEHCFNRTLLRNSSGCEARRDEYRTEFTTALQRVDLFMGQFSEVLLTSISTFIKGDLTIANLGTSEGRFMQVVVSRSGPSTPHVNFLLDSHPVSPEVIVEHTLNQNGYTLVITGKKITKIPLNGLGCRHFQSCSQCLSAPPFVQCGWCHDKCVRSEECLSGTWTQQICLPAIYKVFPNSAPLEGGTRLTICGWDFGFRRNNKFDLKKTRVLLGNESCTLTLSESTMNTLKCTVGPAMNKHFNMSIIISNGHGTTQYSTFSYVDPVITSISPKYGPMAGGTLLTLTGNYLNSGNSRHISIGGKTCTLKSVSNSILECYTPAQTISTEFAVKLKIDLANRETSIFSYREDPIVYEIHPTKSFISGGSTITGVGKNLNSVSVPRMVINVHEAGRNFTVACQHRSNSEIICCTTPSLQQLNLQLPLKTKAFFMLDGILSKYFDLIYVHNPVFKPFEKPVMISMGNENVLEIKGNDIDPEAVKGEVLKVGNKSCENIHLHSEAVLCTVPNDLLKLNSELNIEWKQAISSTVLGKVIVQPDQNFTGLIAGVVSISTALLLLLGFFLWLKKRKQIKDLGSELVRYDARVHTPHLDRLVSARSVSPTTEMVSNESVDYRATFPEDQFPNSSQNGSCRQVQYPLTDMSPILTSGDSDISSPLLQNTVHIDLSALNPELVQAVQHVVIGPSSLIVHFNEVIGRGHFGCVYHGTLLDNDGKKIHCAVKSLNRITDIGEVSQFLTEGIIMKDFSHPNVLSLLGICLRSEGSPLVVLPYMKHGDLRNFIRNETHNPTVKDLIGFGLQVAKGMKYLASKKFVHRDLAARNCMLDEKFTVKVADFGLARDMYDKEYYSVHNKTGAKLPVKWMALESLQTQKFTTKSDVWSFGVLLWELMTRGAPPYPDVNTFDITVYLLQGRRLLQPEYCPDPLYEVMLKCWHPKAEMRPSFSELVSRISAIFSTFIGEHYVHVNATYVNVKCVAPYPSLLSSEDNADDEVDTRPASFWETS
Experiment: PROTAC activity at VHL/c-MET in human MKN-45 cells assessed as induction of c-MET degradation by measuring residual activity at 100 nM incubated for 24 hrs by Western blot analysis (reference value: 100 %)
Type: cell-based
measurement.label: Activity

Example results:
- test.smiles: "Cc1ncsc1-c1ccc([C@H](C)NC(=O)[C@@H]2C[C@@H](O)CN2C(=O)[C@@H](NC(=O)CN2CCN(CC(=O)N3CCC(n4cc(-c5cnc(N)c(O[C@H](C)c6c(Cl)ccc(F)c6Cl)c5)cn4)CC3)CC2)C(C)(C)C)cc1"
  measurement.label: "Activity"
  reported.measurement: "123%"
- test.smiles: "Cc1ncsc1-c1ccc([C@H](C)NC(=O)[C@@H]2C[C@@H](O)CN2C(=O)[C@@H](NC(=O)CCCCCCC(=O)N2CCC(n3cc(-c4cnc(N)c(O[C@H](C)c5c(Cl)ccc(F)c5Cl)c4)cn3)CC2)C(C)(C)C)cc1"
  measurement.label: "Activity"
  reported.measurement: "78%"
- test.smiles: "Cc1ncsc1-c1ccc([C@H](C)NC(=O)[C@@H]2C[C@@H](O)CN2C(=O)[C@@H](NC(=O)CCCCCNC(=O)c2ccc(-c3cnc4ncc(Cc5ccc6ncccc6c5)n4n3)cc2F)C(C)(C)C)cc1"
  measurement.label: "Activity"
  reported.measurement: "68%"
- test.smiles: "Cc1ncsc1-c1ccc([C@H](C)NC(=O)[C@@H]2C[C@@H](O)CN2C(=O)[C@@H](NC(=O)CCCCCCCCC(=O)N2CCC(COc3cnc(-c4cccc(Cn5nc(-c6cccc(C#N)c6)ccc5=O)c4)nc3)CC2)C(C)(C)C)cc1"
  measurement.label: "Activity"
  reported.measurement: "50%"

Now examine the next entry.
Query: Answer with the recorded Activity of `Cc1ncsc1-c1ccc([C@H](C)NC(=O)[C@@H]2C[C@@H](O)CN2C(=O)[C@@H](NC(=O)CCCCCCCCCCCNC(=O)c2ccc(-c3cnc4ncc(Cc5ccc6ncccc6c5)n4n3)cc2F)C(C)(C)C)cc1` only.
Result: 51%

---

Biological target: von Hippel-Lindau disease tumor suppressor/Hepatocyte growth factor receptor (Homo sapiens, UniProt P08581+P40337)
Assay: PROTAC activity at VHL/c-MET in human MKN-45 cells assessed as induction of c-MET degradation by measuring residual activity at 100 nM incubated for 24 hrs by Western blot analysis (reference value: 100 %)
Assay type: cell-based
measurement.label: Activity (%)
Give the quantity in %, number only.

Would you please look over these solved cases?
- test.smiles: "Cc1ncsc1-c1ccc([C@H](C)NC(=O)[C@@H]2C[C@@H](O)CN2C(=O)[C@@H](NC(=O)CCCCCCCCCNC(=O)c2ccc(-c3cnc4ncc(Cc5ccc6ncccc6c5)n4n3)cc2F)C(C)(C)C)cc1"
  reported.measurement: 22
- test.smiles: "Cc1ncsc1-c1ccc([C@H](C)NC(=O)[C@@H]2C[C@@H](O)CN2C(=O)[C@@H](NC(=O)COCCOCCOCCNC(=O)c2ccc(-c3cnc4ncc(Cc5ccc6ncccc6c5)n4n3)cc2F)C(C)(C)C)cc1"
  reported.measurement: 73
- test.smiles: "Cc1ncsc1-c1ccc([C@H](C)NC(=O)[C@@H]2C[C@@H](O)CN2C(=O)[C@@H](NC(=O)CCOCCOCCOCCC(=O)N2CCC(COc3cnc(-c4cccc(Cn5nc(-c6cccc(C#N)c6)ccc5=O)c4)nc3)CC2)C(C)(C)C)cc1"
  reported.measurement: 56
- test.smiles: "Cc1ncsc1-c1ccc([C@H](C)NC(=O)[C@@H]2C[C@@H](O)CN2C(=O)[C@@H](NC(=O)CCCCC(=O)N2CCC(n3cc(-c4cnc(N)c(O[C@H](C)c5c(Cl)ccc(F)c5Cl)c4)cn3)CC2)C(C)(C)C)cc1"
  reported.measurement: 100

// switching to the query molecule
Query: Indicate its recorded Activity; the molecule in question is `Cc1ncsc1-c1ccc([C@H](C)NC(=O)[C@@H]2C[C@@H](O)CN2C(=O)[C@@H](NC(=O)CN2CCN(CCCC(=O)N3CCC(n4cc(-c5cnc(N)c(O[C@H](C)c6c(Cl)ccc(F)c6Cl)c5)cn4)CC3)CC2)C(C)(C)C)cc1`
Result: 111
